The reported measurements were obtained from PubChem BioAssay (NCI).

system: MDA-N; test: NCI tumour cell line growth inhibition, 48 h
measured.attribute: TGI (µM)
Answers are plain numbers, in µM.

As a guide, the following entries are already answered.
• N=c1oc2ccc(Cl)cc2cc1C(N)=O = 69.1
• c1c2c(cc3c1OCO3)-c1cc3ccc4c(c3c[n+]1CC2)OCO4 = 0.595
• CC(=O)O[C@H]1C(=O)[C@@]2(C)C(C(OC(=O)c3ccccc3)[C@]3(O)CC(OC(=O)C(O)C(NC(=O)c4ccccc4)c4cccc(Cl)c4)C(C)=C1C3(C)C)[C@]1(OC(C)=O)CO[C@@H]1C[C@@H]2O (some centres not stated) = 3.46
• Cc1c(N=Nc2ccc(Cl)cc2)c(C)n(C2OC(CO)C(O)C(O)C2O)c(=S)c1C#N (configuration not stated) = 50.4

Could you now consider this next compound?
Enquiry: Find the recorded TGI belonging to `COc1cc2c(cc1OC)C(=O)/C(=C/c1cc(Cl)cc(Cl)c1)C2` and report it.
Return: 4.86

---

system: SNB-19 CNS; assay: NCI tumour cell line growth inhibition, 48 h
Could you please report measured TGI for the items listed next?

Hi! Can you tell me TGI for each of these compounds?
1. COC(=O)/C(=N/NC(C)(C)C)C(C(=O)OC)C(=O)C(=O)Nc1nc2ccc([N+](=O)[O-])cc2s1 (centres undefined)
2. CC(=O)C(C=O)C(C)=O.CC(=O)CC(C)=O.CC(=O)CC(C)=O.[Ru]
3. CCCCc1ccc(Nc2nc(Cl)c3ncn(C4CC(Oc5ccc(C)cc5)C(COc5ccc(C)cc5)O4)c3n2)cc1 (centres undefined)
4. CNC(C)Cc1ccccc1OC (centres undefined)
5. Cc1c2cc[n+](C)cc2c(C)c2c1oc1ccccc12

Return:
1. > 100 µM
2. > 100 µM
3. > 100 µM
4. > 100 µM
5. 4.27 µM

---

system: CCRF-CEM leukemia; assay: NCI tumour cell line growth inhibition, 48 h
measured.attribute: TGI

Answered cases to consult:
• COc1cccc(/C=C\c2ccnc3ccccc23)c1 = > 10 µM
• O=c1[nH]c(SCc2ccccc2[N+](=O)[O-])nc2nc[nH]c12 = > 100 µM
• COc1ccc2c(c1)/C(=C\c1c(Cl)n(-c3ccccc3)c3ccccc13)C(=O)N2 = 55.8 µM
• COc1c(Br)cc(/C=C(\C#N)c2ccccn2)cc1Br = > 100 µM
• C=C1C(=O)C2(C)OC2(C)C1C(=O)O (stereo not given) = > 100 µM
• O=c1c2cc(O)c(O)cc2oc2cc(O)c(C3OC(CO)C(O)C(O)C3O)c(O)c12 (stereo not given) = > 100 µM

Give TGI for all compounds that follow.
1. COc1cc(-c2nn(-c3cccc(NC(=O)CCN4CCN(C)CC4)c3)cc2-c2ccncc2)ccc1Cl
2. c1ccc([P+](c2ccccc2)(c2ccccc2)c2ccc(-c3ccc([P+](c4ccccc4)(c4ccccc4)c4ccccc4)cc3)cc2)cc1
3. NNc1ncc2c(n1)-c1ccccc1OC2

Return:
1. 6.85 µM
2. > 100 µM
3. > 100 µM

Enquiry: Could you share which TGI value was measured for `Cc1cc(-c2cscn2)c(O)c([N+](=O)[O-])c1` ?
Return: > 100 µM

---

system: SW-620 colon; test: NCI tumour cell line growth inhibition, 48 h
Hi there, I'd appreciate the recorded TGI for every entry that follows.

Hello, I would appreciate it if you could give TGI for each entry below.
1. COc1ccc2c(c1)/C(=C\c1c(Cl)n(-c3ccccc3)c3ccccc13)C(=O)N2
2. COc1cc(NC(=O)c2ccccc2Nc2ccnc(C(F)(F)F)c2)cc(OC)c1OC
3. Cn1cnc([N+](=O)[O-])c1Sc1nc2ccc([N+](=O)[O-])cc2[nH]1
4. CC1(C)CC(N2CCN(C3CC(C)(C)NC(C)(C)C3)CC2)CC(C)(C)N1
5. CC(C)[C@H](C(=O)O[C@@H]1/C=C/C(=O)O[C@@H](C)CCC/C=C/[C@@H]2C[C@H](O)C[C@H]21)N(C)C
6. OCc1ccc(N(Cc2ccc(F)cc2)CC2CCC2)cc1Cl

Return:
1: > 100 µM; 2: > 100 µM; 3: > 100 µM; 4: > 100 µM; 5: 21.8 µM; 6: 21 µM

Can you give me TGI for all of these, one by one?
1. Clc1ccc(-c2nc3ccc4ccccc4c3c3c2CCCC3)cc1
2. COc1cccc(/C=C\c2ccnc3ccccc23)c1
3. CCOC(=O)c1cc(-c2ccccc2)[nH]c1N/N=C/c1c(Cl)cccc1Cl
4. CNC(C)Cc1ccccc1OC (stereo unspecified)
5. CC1C(=O)C(C)C(c2ccco2)N(N=O)C1c1ccco1 (stereo unspecified)

Return:
1: > 100 µM; 2: > 10 µM; 3: > 81.2 µM; 4: > 100 µM; 5: > 100 µM
